# Test system: A549
# test method notes: Antiproliferative activity against human A549 cells after 48 hrs by MTT assay
# Assay type: functional, cell-based
# assay context: A549, 48 h
Here, each record is paired with measured IC50 data.
reported property: IC50 (µM)

>  <compound>
COC(=O)C1=C(N)N(c2cccnc2)C2=C(C(=O)CCC2)C1c1cc2ccccc2n2nnnc12 (stereo not given)

>  <measured target>
A549

>  <reported property>
IC50

>  <result>
1.1

$$$$
>  <compound>
N#CC1=C(N)N(c2cccnc2)C2=C(C(=O)CCC2)C1c1cc2ccccc2n2nnnc12 (stereo not given)

>  <measured target>
A549

>  <reported property>
IC50

>  <result>
13

$$$$
>  <compound>
COc1ccc2c(c1)cc(C1C(C#N)=C(N)N(c3cccnc3)C3=C1C(=O)CCC3)c1nnnn12 (stereo not given)

>  <measured target>
A549

>  <reported property>
IC50

>  <result>
23.1

$$$$
>  <compound>
CCOC(=O)C1=C(N)N(c2cccnc2)C2=C(C(=O)CCC2)C1c1cc2cc(Cl)ccc2n2nnnc12 (stereo not given)

>  <measured target>
A549

>  <reported property>
IC50

>  <result>
1.3

$$$$
>  <compound>
COC(=O)C1=C(N)N(c2cccnc2)C2=C(C(=O)CCC2)C1c1cc2cc(C)ccc2n2nnnc12 (stereo not given)

>  <measured target>
A549

>  <reported property>
IC50

>  <result>
5.4

$$$$

###

Catalogue of compounds with associated pIC50
# measured target: Epidermal growth factor receptor (Homo sapiens)
# Sequence (P00533 whole entry, the tested form may be a part): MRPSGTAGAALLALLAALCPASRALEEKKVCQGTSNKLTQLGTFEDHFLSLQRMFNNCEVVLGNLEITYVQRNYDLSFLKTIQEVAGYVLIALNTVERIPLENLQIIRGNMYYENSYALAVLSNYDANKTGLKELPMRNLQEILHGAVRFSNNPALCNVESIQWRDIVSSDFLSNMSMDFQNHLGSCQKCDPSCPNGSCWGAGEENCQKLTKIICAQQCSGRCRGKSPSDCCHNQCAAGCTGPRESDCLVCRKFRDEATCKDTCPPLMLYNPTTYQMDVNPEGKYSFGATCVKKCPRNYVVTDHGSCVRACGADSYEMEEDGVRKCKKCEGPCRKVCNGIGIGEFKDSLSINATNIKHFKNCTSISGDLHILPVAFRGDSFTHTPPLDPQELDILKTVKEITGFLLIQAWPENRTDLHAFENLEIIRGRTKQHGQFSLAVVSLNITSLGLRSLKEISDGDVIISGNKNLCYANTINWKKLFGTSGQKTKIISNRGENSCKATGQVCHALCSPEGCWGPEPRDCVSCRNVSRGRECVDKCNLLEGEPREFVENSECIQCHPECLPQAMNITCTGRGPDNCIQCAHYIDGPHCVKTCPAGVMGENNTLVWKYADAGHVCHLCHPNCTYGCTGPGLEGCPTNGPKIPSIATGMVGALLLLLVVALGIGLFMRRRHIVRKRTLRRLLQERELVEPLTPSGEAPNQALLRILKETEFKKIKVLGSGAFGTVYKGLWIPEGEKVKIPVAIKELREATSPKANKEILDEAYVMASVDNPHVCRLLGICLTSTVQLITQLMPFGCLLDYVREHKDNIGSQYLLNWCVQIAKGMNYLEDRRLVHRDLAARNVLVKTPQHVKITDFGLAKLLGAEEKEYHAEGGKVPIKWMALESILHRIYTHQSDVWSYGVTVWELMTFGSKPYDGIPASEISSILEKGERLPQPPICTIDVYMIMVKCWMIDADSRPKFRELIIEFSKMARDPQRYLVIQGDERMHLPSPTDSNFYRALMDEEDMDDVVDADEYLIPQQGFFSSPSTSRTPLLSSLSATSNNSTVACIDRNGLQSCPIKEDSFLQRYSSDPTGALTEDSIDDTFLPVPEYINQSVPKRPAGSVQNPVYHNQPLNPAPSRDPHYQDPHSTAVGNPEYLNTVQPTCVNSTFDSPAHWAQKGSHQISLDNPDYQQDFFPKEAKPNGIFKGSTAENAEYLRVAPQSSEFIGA
# test method notes: Inhibition of histidine-tagged recombinant EGFR cytoplasmic domain (amino acids 645-1186) (unknown origin) expressed in Sf9 cells assessed as reduction in enzyme autophosphorylation by DELFIA/time-resolved fluorometry
pIC50: −log10 of the molar value.
reported property: pIC50

>  <compound>
CCOC(=O)C1=C(N)N(c2cccnc2)C2=C(C(=O)CCC2)C1c1cc2cc(C)ccc2n2nnnc12 (stereo not drawn)

>  <reported property>
pIC50

>  <result>
5.15

$$$$
>  <compound>
CCOC(=O)C1=C(N)N(c2cccnc2)C2=C(C(=O)CCC2)C1c1cc2ccccc2n2nnnc12 (stereo not drawn)

>  <reported property>
pIC50

>  <result>
7.05

$$$$
>  <compound>
COC(=O)C1=C(N)N(c2cccnc2)C2=C(C(=O)CCC2)C1c1cc2ccccc2n2nnnc12 (stereo not drawn)

>  <reported property>
pIC50

>  <result>
5.96

$$$$

###

# measured target: Receptor tyrosine-protein kinase erbB-2 (Homo sapiens, UniProt P04626)
# Sequence (P04626 whole entry): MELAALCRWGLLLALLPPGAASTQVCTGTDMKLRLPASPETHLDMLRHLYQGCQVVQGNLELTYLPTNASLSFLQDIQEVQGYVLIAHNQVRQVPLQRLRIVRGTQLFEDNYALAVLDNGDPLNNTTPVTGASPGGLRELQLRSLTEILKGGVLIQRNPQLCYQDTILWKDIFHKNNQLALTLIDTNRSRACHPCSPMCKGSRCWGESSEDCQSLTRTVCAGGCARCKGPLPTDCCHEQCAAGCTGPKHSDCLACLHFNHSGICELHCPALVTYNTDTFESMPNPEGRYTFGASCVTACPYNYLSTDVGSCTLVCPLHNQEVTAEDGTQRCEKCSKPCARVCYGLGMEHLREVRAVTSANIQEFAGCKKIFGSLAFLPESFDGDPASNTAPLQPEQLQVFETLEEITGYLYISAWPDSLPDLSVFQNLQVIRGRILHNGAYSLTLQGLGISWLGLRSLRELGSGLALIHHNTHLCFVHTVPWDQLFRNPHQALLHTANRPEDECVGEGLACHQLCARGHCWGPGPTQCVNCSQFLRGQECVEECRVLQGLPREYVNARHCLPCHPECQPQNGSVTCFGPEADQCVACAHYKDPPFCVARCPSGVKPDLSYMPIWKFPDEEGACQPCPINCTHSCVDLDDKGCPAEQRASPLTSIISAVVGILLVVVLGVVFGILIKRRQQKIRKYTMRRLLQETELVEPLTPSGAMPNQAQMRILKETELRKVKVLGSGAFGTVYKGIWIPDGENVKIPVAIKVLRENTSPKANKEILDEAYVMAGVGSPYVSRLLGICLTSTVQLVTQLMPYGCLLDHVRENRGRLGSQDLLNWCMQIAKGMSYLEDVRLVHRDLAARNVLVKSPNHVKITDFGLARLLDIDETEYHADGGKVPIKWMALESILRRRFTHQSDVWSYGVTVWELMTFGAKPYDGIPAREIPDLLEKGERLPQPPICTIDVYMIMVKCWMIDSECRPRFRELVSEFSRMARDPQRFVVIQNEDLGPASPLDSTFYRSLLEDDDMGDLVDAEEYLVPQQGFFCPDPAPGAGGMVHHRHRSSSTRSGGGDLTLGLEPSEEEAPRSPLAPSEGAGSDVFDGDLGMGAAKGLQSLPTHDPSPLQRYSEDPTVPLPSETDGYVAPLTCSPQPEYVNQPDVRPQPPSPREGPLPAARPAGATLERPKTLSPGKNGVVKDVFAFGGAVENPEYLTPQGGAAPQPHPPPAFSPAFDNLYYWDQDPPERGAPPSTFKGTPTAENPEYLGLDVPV
# test method notes: Inhibition of histidine-tagged recombinant HER2 (unknown origin) expressed in Sf9 cells assessed as reduction in enzyme autophosphorylation by DELFIA/time-resolved fluorometry
reported property: IC50 (µM)

>  <compound>
COC(=O)C1=C(N)N(c2cccnc2)C2=C(C(=O)CCC2)C1c1cc2cc(C)ccc2n2nnnc12 (stereo not drawn)

>  <result>
5.2

$$$$
>  <compound>
CCOC(=O)C1=C(N)N(c2cccnc2)C2=C(C(=O)CCC2)C1c1cc2cc(C)ccc2n2nnnc12 (stereo not drawn)

>  <result>
4.1

$$$$
>  <compound>
COC(=O)C1=C(N)N(c2cccnc2)C2=C(C(=O)CCC2)C1c1cc2cc(Cl)ccc2n2nnnc12 (stereo not drawn)

>  <result>
9

$$$$
